Tested on: H3K18Ac in HB-CLS-2 cells
Method: H3K18AC in-cell western (ICW) assay
Type: cell-based
Condition Context: H3K18Ac in-cell western; read-out: CREBBP ICW IC50
Listing of entries alongside the reported pIC50.
Scale explanation: pIC50 corresponds to minus log10 of a concentration expressed in moles per litre.

Query: # query: pIC50 of entry CCn1ncc(CN(C)C(=O)c2nc(-c3cc(C(=O)NC4CCN(C)CC4)n(C)n3)nc3ccc(Cl)cc23)c1C [Compound 65]
Result: 6.14

Query: How about CCn1ncc(CN(C)C(=O)c2nc(-c3cc(C)cc(NC4CNCC4(F)F)c3)nc3ccc(Cl)cc23)c1C (stereo not drawn) [Compound 554] ?
Result: 5.97

Query: Same for CCn1ncc(CN(C)C(=O)c2nc(-c3ccc4[nH]cnc4c3)nc3ccc(Cl)cc23)c1C [Compound 57]
Result: 6.18

====

Target: CREBBP (1084-1701) (Homo sapiens)
Construct: measured in the following biochemical assay using CREBBP (1084-1701); purchased
Sequence (Q92793 1084-1701): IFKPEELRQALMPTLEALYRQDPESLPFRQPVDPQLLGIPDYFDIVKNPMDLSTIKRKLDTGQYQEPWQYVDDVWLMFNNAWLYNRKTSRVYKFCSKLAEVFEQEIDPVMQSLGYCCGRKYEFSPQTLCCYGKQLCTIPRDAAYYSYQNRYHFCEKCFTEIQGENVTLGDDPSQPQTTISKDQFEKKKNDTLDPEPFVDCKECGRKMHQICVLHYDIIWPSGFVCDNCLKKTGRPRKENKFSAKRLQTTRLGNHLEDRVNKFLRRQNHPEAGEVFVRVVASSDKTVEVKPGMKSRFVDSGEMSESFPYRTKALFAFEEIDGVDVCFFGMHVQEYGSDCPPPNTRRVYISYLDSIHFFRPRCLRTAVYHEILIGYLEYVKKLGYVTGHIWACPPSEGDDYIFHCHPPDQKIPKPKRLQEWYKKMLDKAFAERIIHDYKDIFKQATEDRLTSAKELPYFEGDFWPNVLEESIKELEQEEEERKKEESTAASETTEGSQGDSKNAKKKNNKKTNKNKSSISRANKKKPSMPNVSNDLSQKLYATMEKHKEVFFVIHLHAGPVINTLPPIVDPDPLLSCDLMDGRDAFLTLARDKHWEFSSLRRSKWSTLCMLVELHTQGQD
Method: Biochemical assay for CREBBP (1084-1701), SAMDI
Condition Context: SAMDI, read-out: CREBBP Biochemistry IC50
Catalogue of IC50 values
Number only, in µM; omit the unit.

Consider the reported IC50 for these compounds:
{"Compound Structure": "CCn1ncc(CN(C)C(=O)c2nc(-c3ccc(OCCNC(C)=O)cc3Cl)nc3ccc(Cl)cc23)c1C", "Unit Tag": "µM", "IC50": 0.28}
{"Compound Structure": "CCn1ncc(CN(C)C(=O)c2nc(-c3ccc(OCCCN(C)C(=O)OC(C)(C)C)cc3)nc3ccc(Cl)cc23)c1C", "Unit Tag": "µM", "IC50": 57}
{"Compound Structure": "CCn1ncc(CN(C)C(=O)c2cc(-c3cc(C(=O)NC)n(C)n3)nc3ccc(Cl)cc23)c1C", "Unit Tag": "µM", "IC50": 0.0121}

# next compound below
Query: Please look up its IC50: CN(Cc1cnn2c1CCC2)C(=O)c1cc(-c2cccc(Cl)c2)nc2ccc(Cl)cc12
Result: 72

====

Target: EP300 (P300(1048-1664)) (Homo sapiens, UniProt Q09472)
Construct: P300(1048-1664)
Sequence (Q09472 1048-1664): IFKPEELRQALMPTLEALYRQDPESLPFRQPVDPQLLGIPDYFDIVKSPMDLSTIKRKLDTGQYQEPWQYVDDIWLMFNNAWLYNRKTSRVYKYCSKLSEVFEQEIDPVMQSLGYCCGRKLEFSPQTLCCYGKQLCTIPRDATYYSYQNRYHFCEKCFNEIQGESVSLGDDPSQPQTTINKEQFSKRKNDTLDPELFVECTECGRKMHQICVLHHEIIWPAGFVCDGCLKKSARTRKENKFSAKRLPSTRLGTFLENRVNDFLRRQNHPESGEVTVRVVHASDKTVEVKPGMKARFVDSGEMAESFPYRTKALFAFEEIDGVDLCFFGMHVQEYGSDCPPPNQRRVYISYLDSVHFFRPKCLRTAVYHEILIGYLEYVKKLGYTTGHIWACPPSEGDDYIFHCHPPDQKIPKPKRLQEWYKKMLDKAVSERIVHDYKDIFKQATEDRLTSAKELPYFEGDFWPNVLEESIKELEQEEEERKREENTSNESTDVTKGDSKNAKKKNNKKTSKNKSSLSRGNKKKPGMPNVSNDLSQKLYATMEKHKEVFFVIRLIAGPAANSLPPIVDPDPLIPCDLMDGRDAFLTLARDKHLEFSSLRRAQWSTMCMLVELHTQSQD
Method: Biochemical assay for EP300, SAMDI
Condition Context: EP300, SAMDI; read-out: EP300 Biochemistry IC50
// reported IC50 per item
Please give a number only; it is taken to be in nM.

Please review the following examples before continuing.
{"Compound": "CCn1ncc(CN(C)C(=O)c2nc(-c3cc(C#N)c4nc[nH]c4c3)nc3ccc(COC)cc23)c1C", "Target": "EP300 (P300(1048-1664)) (Homo sapiens, UniProt Q09472)", "Quantitative Result": 974}
{"Compound": "CCn1ncc(CN(C)C(=O)c2nc(-c3cc(C)cc(NC4CNCC4(F)F)c3)nc3ccc(Cl)cc23)c1C (centres unmarked)", "Target": "EP300 (P300(1048-1664)) (Homo sapiens, UniProt Q09472)", "Quantitative Result": 173}
{"Compound": "CCn1ncc(C(=O)N(C)Cc2cc(-c3ccc(NCCNC)c(C)n3)nc3ccc(Cl)cc23)c1C", "Target": "EP300 (P300(1048-1664)) (Homo sapiens, UniProt Q09472)", "Quantitative Result": 34200}
{"Compound": "CCn1ncc(CN(C)C(=O)c2nc(-c3cc4c(NC)[nH]nc4cc3C)nc3ccc(C4CC4)cc23)c1C", "Target": "EP300 (P300(1048-1664)) (Homo sapiens, UniProt Q09472)", "Quantitative Result": 8.7}

Pending compound:
Query: What value of IC50 has been recorded for this entry: CCc1ncc(CN(C)C(=O)c2nc(-c3cc(C)cc(NC4CCNC4)c3)nc3ccc(COC)cc23)n1C (centres unmarked)
Result: 36.8

====

System: H3K18Ac in HB-CLS-2 cells
Method: H3K18AC in-cell western (ICW) assay
Assay type: cell-based
Condition Context: H3K18Ac in-cell western; read-out: CREBBP ICW IC50
Readout: pIC50
Note on units: pIC50 is unitless, being -log10 of a concentration expressed in mol/L.

Examples with their reported pIC50 follow.
{"Compound": "CCn1ncc(CN(C)C(=O)c2nc(-c3cc(Cl)cc(OCCNC)c3)nc3ccc(Cl)cc23)c1C [Compound 60]", "pIC50": 6.06}
{"Compound": "CCn1ncc(CN(C)C(=O)c2nc(-c3cc(C#N)c4nc[nH]c4c3)nc3ccc(COC)cc23)c1C [Compound 475]", "pIC50": 6.05}

# next compound below
Query: I have this compound here, CCn1ncc(CN(C)C(=O)c2nc(-c3cc(C)c4c(c3)NC(=O)C4)nc3ccc(Cl)cc23)c1C [Compound 463] , and I need its recorded pIC50.
Result: 5.85

====

Target: EP300 (P300(1048-1664)) (Homo sapiens)
Construct: P300(1048-1664)
Sequence (Q09472 1048-1664): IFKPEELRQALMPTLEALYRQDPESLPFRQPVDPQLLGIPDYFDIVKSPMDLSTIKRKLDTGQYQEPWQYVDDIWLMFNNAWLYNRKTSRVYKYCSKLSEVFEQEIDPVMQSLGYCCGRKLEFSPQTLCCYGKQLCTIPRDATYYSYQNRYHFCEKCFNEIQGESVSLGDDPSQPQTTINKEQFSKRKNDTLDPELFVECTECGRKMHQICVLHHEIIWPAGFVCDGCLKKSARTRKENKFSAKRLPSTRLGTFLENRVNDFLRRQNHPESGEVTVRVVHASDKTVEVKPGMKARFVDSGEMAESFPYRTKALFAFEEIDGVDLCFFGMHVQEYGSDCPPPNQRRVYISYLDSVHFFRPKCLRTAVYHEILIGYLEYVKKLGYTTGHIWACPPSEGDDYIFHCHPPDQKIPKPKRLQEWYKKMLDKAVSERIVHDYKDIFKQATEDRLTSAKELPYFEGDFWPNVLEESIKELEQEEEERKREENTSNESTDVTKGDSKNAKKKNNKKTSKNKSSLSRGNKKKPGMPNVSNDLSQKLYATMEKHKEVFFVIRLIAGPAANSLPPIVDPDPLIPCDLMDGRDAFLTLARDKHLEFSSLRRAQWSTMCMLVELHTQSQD
Method: Biochemical assay for EP300, SAMDI
Condition Context: EP300, SAMDI; read-out: EP300 Biochemistry IC50
pIC50: −log10 of the molar value.
Criterion met means recorded pIC50 is 7 or above; Criterion not met means it is below 7.

{"Compound": "CCc1nc(-c2cc(C(=O)N(C)Cc3cnc(CC)n3C)c3cc(COC)ccc3n2)ccc1NCCNC [Compound 486]", "Category Label": "Criterion met"}

Query: API: above_or_equal(metric=pIC50, cutoff=7) for item CCn1ncc(CN(C)C(=O)c2nc(-c3ccc(OCCNC)c(Cl)c3)nc3ccc(OC)cc23)c1C [Compound 152]
Result: Criterion not met

Query: Same again, this time with CCc1ncc(CN(C)C(=O)c2nc(-c3cc(N)c4c[nH]nc4c3)nc3ccc(Cl)cc23)n1C [Compound 546]
Result: Criterion met

Query: Follow-up item: CCn1ncc(CN(C)C(=O)c2cc(-c3cn[nH]c3N)nc3ccc(Cl)cc23)c1C [Compound 227]
Result: Criterion not met

Query: And for CCn1ncc(CN(C)C(=O)c2nc(-c3ccc(NCCNC)c(C)n3)nc3ccc(Cl)cc23)c1C [Compound 79] ?
Result: Criterion not met

Query: Queued: CCn1ncc(CN(C)C(=O)c2nc(-c3cc4c(C)[nH]nc4cc3Cl)nc3ccc(Cl)cc23)c1C [Compound 1]
Result: Criterion met

Query: Repeat with CCn1ncc(CN(C)C(=O)c2nc(-c3ccc(OCCC(=O)NC)c(OC)c3)nc3ccc(Cl)cc23)c1C [Compound 137]
Result: Criterion not met

Query: How about CCn1ncc(C(C)N(C)C(=O)c2cc(-c3ccc(NCCNC)c(C)n3)nc3ccc(Cl)cc23)c1C (stereo not drawn) [Compound 533] ?
Result: Criterion met

The values you see were collected from patent US20220144812A1.
